Each recorded value in this set is attributed to patent US10138207B2.

So I've got a bunch of molecules here, and I need their pEC50 values.
Molecular target: κ opioid receptor (Homo sapiens)
Sequence (P41145 whole entry): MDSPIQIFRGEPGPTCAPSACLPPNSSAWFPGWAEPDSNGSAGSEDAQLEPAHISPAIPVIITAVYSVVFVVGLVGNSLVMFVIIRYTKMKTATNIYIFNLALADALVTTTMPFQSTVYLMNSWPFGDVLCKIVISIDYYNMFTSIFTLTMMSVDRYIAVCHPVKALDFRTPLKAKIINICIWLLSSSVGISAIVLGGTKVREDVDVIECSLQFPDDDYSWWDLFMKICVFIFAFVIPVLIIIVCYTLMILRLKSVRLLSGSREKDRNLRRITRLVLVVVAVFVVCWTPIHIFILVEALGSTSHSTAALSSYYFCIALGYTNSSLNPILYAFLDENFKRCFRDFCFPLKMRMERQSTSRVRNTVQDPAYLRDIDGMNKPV
Assay: κ-opioid receptor [35S]GTPγS functional assay, HEK-293 or CHO cells
Type: biochemical
Design: expressed in transfected cells; host or cells: U-2 OS (in-house membranes)
Answers are plain numbers, as −log10 of the molar value.

// for each molecule below, give its pEC50
1. COc1ccc2c(c1)[C@@]1(C)CCN(C)C(C2)C1N1CCCC(C(=O)O)C1 (stereo partly drawn)
2. CN[C@@H]1[C@H]2Cc3ccc(OC)cc3[C@@]1(C)CCN2CC1CC1

6.20
5.59

Record request: pEC50 value, item `CN1CC[C@]2(C)c3cc(O)ccc3CC1[C@H]2COc1ccc(C(N)=O)cc1`
6.40
